- assay.name: survival / late mortality of guinea-pigs treated in the broncholitic activity test (48 hours, oral route)
- condition: guinea pig, in vivo, po, 75 mg/kg
endpoint.name: survival at 48 h (%)

> print(dat)
                                   compound     endpoint.name  unit.name  reading
1  Cc1ccnc(C)c1C(=O)OC(C)c1nc2c(c(=O)n(C)c(=O)n2C)n1C.Cl (centres unmarked) [386/986, monohydrochloride]  survival at 48 h          %      100
2  CC(OC(=O)c1cccnc1)c1nc2c(c(=O)n(C)c(=O)n2C)n1C.Cl (centres unmarked) [386/770, monohydrochloride]  survival at 48 h          %      100

----------
- assay.name: acute toxicity, mouse
- condition: in vivo, po, per os, suspended in 5% arabic gum
endpoint.name: LD50 (mg/kg)

> print(dat)
                                   molecule  reading
1  CC(OC(=O)c1cccnc1)c1nc2c(c(=O)n(C)c(=O)n2C)n1C (stereo not drawn) [8-[α-(nicotinoyloxy)-ethyl]-caffeine]      520
2  Cc1ccnc(C)c1C(=O)OC(C)c1nc2c(c(=O)n(C)c(=O)n2C)n1C (centres unmarked)      500

----------
- assay.name: survival / late mortality of guinea-pigs treated in the broncholitic activity test (48 hours, oral route)
- condition: guinea pig, in vivo, po, 150 mg/kg
endpoint.name: survival at 48 h

> print(dat)
                                   compound     endpoint.name  reading
1  Cc1ccnc(C)c1C(=O)OC(C)c1nc2c(c(=O)n(C)c(=O)n2C)n1C.Cl (centres unmarked) [386/986, monohydrochloride]  survival at 48 h     100%
2  CC(OC(=O)c1cccnc1)c1nc2c(c(=O)n(C)c(=O)n2C)n1C.Cl (centres unmarked) [386/770, monohydrochloride]  survival at 48 h     100%

----------
- assay.name: acute toxicity, mouse
- condition: in vivo, ip, dissolved in physiological salt solution
endpoint.name: LD50 (mg/kg)

> print(dat)
                                   compound  endpoint.name  reading
1  CC(OC(=O)c1cccnc1)c1nc2c(c(=O)n(C)c(=O)n2C)n1C (stereo not drawn) [8-[α-(nicotinoyloxy)-ethyl]-caffeine]           LD50      445
2  Cc1ccnc(C)c1C(=O)OC(C)c1nc2c(c(=O)n(C)c(=O)n2C)n1C (centres unmarked)           LD50      320

----------
- assay.name: strengthening of the andiogenic convulsions test in the mouse
- Assay type: in vivo
- condition: in vivo, ip, intraperitoneal dose of 50 mg/kg, read-out: death of treated animals
endpoint.name: mortality (%)

> print(dat)
                                   compound  endpoint.name  reading
1  Cn1c(=O)c2[nH]cnc2n(C)c1=O [Aminophilline, reference compound]      mortality       50
